Data provenance: patent US6528274B1

measured on: UniProt Q9YJT3
Assay type: biochemical
experimental context: LacNAc-O-gr = 100
# label = label 1 if Relative Vmax < 50 else label 0

1. COC(=O)CCCCCCCCO[C@@H]1O[C@H](CO)[C@@H](O)[C@H](O[C@@H]2O[C@H](CO)[C@H](O)[C@H](O)[C@H]2O)[C@H]1NC(C)=O | label 0
2. COC(=O)CCCCCCCCO[C@@H]1O[C@H](CO)[C@@H](O[C@@H]2O[C@H](CO)[C@H](O)[C@H](O)[C@H]2O)[C@H](O)[C@H]1O | label 0
3. COC(=O)CCCCCCCCO[C@@H]1O[C@H](CO)[C@@H](O[C@@H]2O[C@H](CO)[C@H](O[C@H]3O[C@H](CO)[C@H](O)[C@H](O)[C@H]3O)[C@H](O)[C@H]2O)[C@H](O)[C@H]1O | label 1
4. COC(=O)CCCCCCCCO[C@@H]1O[C@H](CO)[C@@H](O[C@@H]2O[C@@H](C)[C@@H](O)[C@@H](O)[C@@H]2O)[C@H](O[C@@H]2O[C@H](CO)[C@H](O)[C@H](O)[C@H]2O)[C@H]1NC(C)=O | label 1
5. COC(=O)CCCCCCCCO[C@@H]1O[C@H](CO)[C@@H](O[C@@H]2O[C@H](CO)[C@H](O)[C@H](O)[C@H]2O)[C@H](O[C@@H]2O[C@@H](C)[C@@H](O)[C@@H](O)[C@@H]2O)[C@H]1NC(C)=O | label 1
6. COC(=O)CCCCCCCCO[C@@H]1O[C@H](CO)[C@@H](O[C@@H]2O[C@H](CO)[C@H](O)[C@H](O)[C@H]2O)[C@H](O)[C@H]1NC(C)=O | label 0
